Target: T1, Human CD3eg linker (human)
T1 construct: Single chain: epsilon and gamma subunits of human CD3 joined by a 29-mer linker, Flag-tag at the C-terminus; also called recombinant human CD3
T1 chain: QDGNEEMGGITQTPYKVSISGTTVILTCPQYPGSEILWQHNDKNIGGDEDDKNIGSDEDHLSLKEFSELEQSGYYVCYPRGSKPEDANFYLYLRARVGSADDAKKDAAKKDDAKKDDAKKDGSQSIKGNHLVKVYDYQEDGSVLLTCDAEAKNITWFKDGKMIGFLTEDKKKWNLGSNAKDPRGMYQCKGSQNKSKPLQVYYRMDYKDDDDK
Assay: Biacore SPR, vs template H183/L072
property name: fold change of affinity (fold)
Express the result in fold but write the number alone.

binder: H183/L072 VH V100cP (antibody, name in Kabat numbering, V domains shown) VH: QVQLVESGGGLVQPGRSLRLSCAASGFTFSNAWMHWVRQAPGKGLEWVAQIKDKGNAYAAYYAPSVKGRFTISRDDSKNSIYLQMNSLKTEDTAVYYCHYVHYASASTPLPAFGVDAWGQGTTVTVSS VL: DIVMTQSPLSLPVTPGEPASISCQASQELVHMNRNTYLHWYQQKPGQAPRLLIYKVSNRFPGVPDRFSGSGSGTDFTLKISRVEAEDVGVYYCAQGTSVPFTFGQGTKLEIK
scale unit: fold
fold change of affinity: 1
--
binder: H183/L072 VH T28Q (antibody, name in Kabat numbering, V domains shown) VH: QVQLVESGGGLVQPGRSLRLSCAASGFQFSNAWMHWVRQAPGKGLEWVAQIKDKGNAYAAYYAPSVKGRFTISRDDSKNSIYLQMNSLKTEDTAVYYCHYVHYASASTVLPAFGVDAWGQGTTVTVSS VL: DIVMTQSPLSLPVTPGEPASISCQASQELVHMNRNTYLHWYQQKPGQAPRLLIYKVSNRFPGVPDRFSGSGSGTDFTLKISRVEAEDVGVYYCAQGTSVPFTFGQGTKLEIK
scale unit: fold
fold change of affinity: 0
--
binder: H183/L072 VH A32S (antibody, name in Kabat numbering, V domains shown) VH: QVQLVESGGGLVQPGRSLRLSCAASGFTFSNSWMHWVRQAPGKGLEWVAQIKDKGNAYAAYYAPSVKGRFTISRDDSKNSIYLQMNSLKTEDTAVYYCHYVHYASASTVLPAFGVDAWGQGTTVTVSS VL: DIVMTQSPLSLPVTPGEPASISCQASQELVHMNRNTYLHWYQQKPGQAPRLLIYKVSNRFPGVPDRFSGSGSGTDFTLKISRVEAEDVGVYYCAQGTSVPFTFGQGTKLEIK
scale unit: fold
fold change of affinity: 0.4
--
binder: H183/L072 VH A56S (antibody, name in Kabat numbering, V domains shown) VH: QVQLVESGGGLVQPGRSLRLSCAASGFTFSNAWMHWVRQAPGKGLEWVAQIKDKGNAYSAYYAPSVKGRFTISRDDSKNSIYLQMNSLKTEDTAVYYCHYVHYASASTVLPAFGVDAWGQGTTVTVSS VL: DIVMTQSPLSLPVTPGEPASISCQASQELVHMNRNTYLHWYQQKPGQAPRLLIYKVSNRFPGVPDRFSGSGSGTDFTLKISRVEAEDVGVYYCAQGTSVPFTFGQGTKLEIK
scale unit: fold
fold change of affinity: 0.9

Task: // returns reported fold change of affinity for input H183/L072 VH W33G (antibody, name in Kabat numbering, V domains shown) VH: QVQLVESGGGLVQPGRSLRLSCAASGFTFSNAGMHWVRQAPGKGLEWVAQIKDKGNAYAAYYAPSVKGRFTISRDDSKNSIYLQMNSLKTEDTAVYYCHYVHYASASTVLPAFGVDAWGQGTTVTVSS VL: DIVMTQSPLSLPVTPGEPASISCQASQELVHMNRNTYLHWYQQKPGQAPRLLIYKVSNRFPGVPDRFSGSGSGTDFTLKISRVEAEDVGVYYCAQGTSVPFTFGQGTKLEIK
Result: 0

The reported numbers originate from patent US20210388087A1.
